The values you see were collected from patent US20220306765A1.

Target: human CLDN18.2-mRFP N37D (human)
Sequence (chain, as listed by the source N37D N37D limits assumed): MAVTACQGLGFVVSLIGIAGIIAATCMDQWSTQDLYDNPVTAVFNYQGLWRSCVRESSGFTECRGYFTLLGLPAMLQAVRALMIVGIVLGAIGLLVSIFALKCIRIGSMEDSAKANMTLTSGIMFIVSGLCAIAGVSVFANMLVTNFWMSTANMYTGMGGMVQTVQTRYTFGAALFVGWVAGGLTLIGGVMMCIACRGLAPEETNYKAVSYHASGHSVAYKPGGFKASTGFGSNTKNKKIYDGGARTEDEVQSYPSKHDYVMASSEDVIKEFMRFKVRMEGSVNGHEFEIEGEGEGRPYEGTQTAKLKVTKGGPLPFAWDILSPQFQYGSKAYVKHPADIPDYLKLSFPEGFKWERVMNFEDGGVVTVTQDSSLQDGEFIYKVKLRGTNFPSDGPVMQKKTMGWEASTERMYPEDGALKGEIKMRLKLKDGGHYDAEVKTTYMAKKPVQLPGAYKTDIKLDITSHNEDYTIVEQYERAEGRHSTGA
Experiment: FACS, transfected HEK293, 10 µg/ml antibody;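 further: antibody binding read by flow cytometry with a FITC-labelled anti-human IgG secondary, gated on RFP-positive cells, each mutant signal expressed against wild-type CLDN18.2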
In this section we review reported binding percentage vs wild-type CLDN18.2 values for a set of binders.
Number in %, nothing else.

Example entries begin here.
• 12E9-C (antibody, human IgG1, V domains shown, also called chimeric 12E9) VH: EFQLQQSGPELEKPGASVRISCKTSGYSFTGYNMNWVKQSNGESLEWIGNIDPYYGGTRYNQKFKGKATLTVDKSSSTAYMQLKSLTSEDSAVYYCARSYYGNAFDYWGQGTTLTVSS VL: DIVMTQSPSSLTVTAGEKVTMSCKSSQNLLNNGNQKNYLTWYQQKPGQPPKLLIYWASTRESGVPDRFTGSGSGTDFILTISSVQAEDLAVYYCQNDYSFPFTFGAGTKLELK = 103
• 7C12-C (antibody, human IgG1, V domains shown, also called chimeric 7C12) VH: EFQLQQSGPELEKPGASVRISCKTSGYSFTGYNMNWVKQSNGESLEWIGNIDPYYGATRYNQKFKGKATLTVDKSSSTAYMQLKSLTSEDSAVYYCARSYYGNAFDYWGQGTTLTVSS VL: DIVMTQSPSSLTVTAGEKVTMSCKSSQSLLNSGNQKNYLTWYQQKPGQPPKLLIYWASTRESGVPDRFTGSGSGTDFTLTISSVQAEDLAVYYCQNDYSFPFTFGSGTKLEIK = 80.2

Need binding percentage vs wild-type CLDN18.2, item 18B10-C (antibody, human IgG1, V domains shown, also called chimeric 18B10) VH: EFQLQQSGPELEKPGASVRISCKTSGYSFTGYNMNWVKQSNGESLEWIGNIDPYYGGTSYNQKFKGKATLTVDKSSSTAYMQLKSLTSEDSAVYYCARMYHGNAFDYWGQGTTLTVSS VL: DIVMTQSPSSLTVTAGEKVTMSCKSSQSLLNSGNLKNYLTWYQQKPGQPPKLLIYWASTRKSGVPDRFTGSGSGTDFTLTLSSVQAEDLAVYYCQNDYSYPLTFGAGTKLELK
106
